The entries below are paired with their reported growth inhibition.
assay: NCI Yeast Anticancer Drug Screen. Data for the rad50 strain (AID 155);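 further: 0% = growth of vehicle-only cultures of the same strain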; conditions: S. cerevisiae rad50 strain growth inhibition; at 5.0 µM (retest, dose inferred, filed as 0.5); active compounds read high
The panel holds about 79,000 compounds, 15% with a hit somewhere; the sample as a whole holds those more often.
Answer in %, number only, no unit symbol.

What does the data say about its growth inhibition? Entry: COc1ccc(C(NCCNC(c2ccc(OC)c(OC)c2)c2cc3c(cc2O)OCO3)c2cc3c(cc2O)OCO3)cc1OC (stereo unspecified)
-12

* * *

test: NCI Yeast Anticancer Drug Screen. Data for the CLN2oe strain (AID 163);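 further: 0% = growth of vehicle-only control cultures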; settings: S. cerevisiae CLN2oe strain, at 100.0 µM, active compounds read high
About 79,000 compounds went through this panel and 15% of them were active in at least one assay; those are over-represented in the sample as a whole. Activity calls are given as the source filed them. Rule as the data show it: active = growth inhibition above about 70%; inactive = the rest.
READOUT_LABEL: growth inhibition

Reference set (3 entries):
* O=c1c2ccccc2nc(-c2ccccc2)n1O | 88% (active)
* CCOC(=O)c1[nH]cc(C)c1-c1cccn1-c1ccc(Cl)cc1[N+](=O)[O-] | 92% (active)
* Cc1sc2ccc3ccccc3c2[n+]1C | 92% (active)

What does the data say about its growth inhibition? Entry: CCN(CC)CCN(C)CCc1ccc(Br)cc1
89% (active)

* * *

The entries below are paired with their reported growth inhibition.
test: NCI Yeast Anticancer Drug Screen. Data for the rad18 strain (AID 177); settings: S. cerevisiae rad18 mutant growth inhibition; at 11.0 µM; active compounds read high
Compounds without any hit were thinned out: in the full panel of roughly 79,000, 15% have a hit.
Answer in %, number only, no unit symbol.

Reference set (4 entries):
- O=C1C=C(c2ccccc2)OC1(c1ccccc1)N1CCOCC1 (configuration not stated): -2
- COC(=O)Nc1cn2ccc(C(Cl)=C(Cl)Cl)cc2n1: -13
- CCOC(=O)c1ccc(NC(=O)O/N=C(/Cl)C(C)C)cc1: -1
- CCCC(=O)Oc1c(C)cc([N+](=O)[O-])cc1[N+](=O)[O-]: 98

What does the data say about its growth inhibition? Entry: CN(C)/C=C/c1nnc([N+](=O)[O-])s1
21

What does the data say about its growth inhibition? Entry: CC1OC(O[C@H]2/C=C/C=C/C=C/C=C/C=C/C=C/C=C/[C@H](C)[C@@H](O)[C@@H](C)[C@H](C)OC(=O)C[C@H](O)C[C@H](O)CC[C@@H](O)[C@H](O)C[C@H](O)C[C@]3(O)C[C@H](O)[C@@H](C(=O)O)[C@H](C2)O3)C(O)C(N)C1O (some centres not stated)
97

What does the data say about its growth inhibition? Entry: CN(C)N=Nc1ccccc1C(=O)NC#N
97

* * *

test: NCI Yeast Anticancer Drug Screen. Data for the rad50 strain (AID 155);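 further: 0% = growth of vehicle-only cultures of the same strain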; settings: S. cerevisiae rad50 strain growth inhibition; at 1.2 µM; active compounds read high
Compounds without any hit were thinned out: in the full panel of roughly 79,000, 15% have a hit.
READOUT_LABEL: growth inhibition (%)
Answer in %, number only, no unit symbol.

Reference set (4 entries):
- COc1ccc(C2C3=C(COC3=O)OC(C)(C)Oc3cc4c(cc32)OCO4)cc1OC (stereo not given): 15
- NC(=O)c1c([N+](=O)[O-])cc(C(F)(F)F)cc1[N+](=O)[O-]: -1
- COC(=O)Oc1cc(Cl)c(Cl)cc1Cl: 0
- CCC(=O)c1cc(C(=O)C(=S)SC)cc(C(=O)C(=S)SC)c1: 1

What does the data say about its growth inhibition? Entry: CN(C)/C=C/c1nnc([N+](=O)[O-])s1
-8

* * *

assay: NCI Yeast Anticancer Drug Screen. Data for the bub3 strain (AID 167); settings: S. cerevisiae bub3 mutant strain, at 50.0 µM (retest, dose inferred, filed as 5.0)
About 79,000 compounds went through this panel and 15% of them were active in at least one assay; those are over-represented in the sample as a whole. Activity calls are given as the source filed them. Cut-off read from the data, not from the text of the source: active = growth inhibition above about 70%; inactive = the rest.
Respond with a class label; see active, inactive

Past entries and their recorded results:
* COc1ccc([N+](=O)[O-])c2c(NCCCN(C)C)c3ccccc3nc12 | active
* C=C1CCC(O)C/C1=C/C=C1\CCCC2(C)C1CCC2C(C)CCCC(C)C (stereo not drawn) | inactive
* CN(CCN(C)Cc1ccccc1)Cc1ccccc1 | inactive
* COC(=O)CC1(O)C(/C=C/c2ccccc2)C(C(=O)OC)C(=O)C(C(=O)OC)C1C(=O)OC (stereo not drawn) | inactive
* CCCCCCCCCCCCNC(C)=O | active

Assay result, entry O=Cc1ccc2c(c1)C(=O)c1ccccc1C2=O — outcome?
inactive

Assay result, entry CCCOC(=O)C(F)C(Br)C(=O)OCCC (stereo not drawn) — outcome?
active

Assay result, entry Cc1ccc(NC(c2ccccc2)c2ccc3cccnc3c2O)cc1 (stereo not drawn) — outcome?
inactive

* * *

experiment: NCI Yeast Anticancer Drug Screen. Data for the wt2 strain (AID 169);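 further: 0% = growth of vehicle-treated yeast cultures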; settings: S. cerevisiae wt2 strain growth inhibition; at 33.0 µM; active compounds read high
This is part of a sample that, as a whole, favours compounds with a hit. Of some 79,000 tested, about 15% had one in any assay. Activity calls are given as the source filed them. Rule as the data show it: active = growth inhibition above about 70%; inactive = the rest.
READOUT_LABEL: growth inhibition

Reference set (3 entries):
- CCCOC(=O)C(F)C(Br)C(=O)OCCC (stereo unspecified): 98% (active)
- CC(C)C(C)/C=C\C(C)C1CCC2C3=CC=C4CC(O)CCC4(C)C3CCC21C (stereo unspecified): 1% (inactive)
- Cc1cc2cc3cc(C)c(N)cc3nc2cc1N: 56% (inactive)

What does the data say about its growth inhibition? Entry: CCOC(=O)C(Br)C(Br)c1ccccc1Cl (stereo unspecified)
99% (active)

What does the data say about its growth inhibition? Entry: O=C(NNc1ccccc1)c1ccc(Cl)c(Cl)c1
15% (inactive)

What does the data say about its growth inhibition? Entry: COc1cc(O)c2c(c1O)C(=O)c1cc(C)ncc1C2=O
91% (active)

What does the data say about its growth inhibition? Entry: S=C1SCN(C2CCCCC2)CN1C1CCCCC1
-22% (inactive)

What does the data say about its growth inhibition? Entry: Cc1c(C)c(C)c(CSC(=N)N)c(C)c1C
57% (inactive)

What does the data say about its growth inhibition? Entry: CCCCC(CC)C(=O)[O][Sn]([CH2]CCC)([CH2]CCC)[O]C(=O)C(CC)CCCC (stereo unspecified)
90% (active)

What does the data say about its growth inhibition? Entry: Cc1cc2c3ccccc3c3ccccc3c2nn1
-3% (inactive)

What does the data say about its growth inhibition? Entry: C=C(Cl)COC(=O)Nc1cccc(Cl)c1
39% (inactive)

* * *

test: NCI Yeast Anticancer Drug Screen. Data for the wt1 strain (AID 149);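 further: 0% = growth of vehicle-treated wt1 cultures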; conditions: S. cerevisiae wt1 strain (SPY 50644) growth inhibition; at 3.7 µM; active compounds read high
This is part of a sample that, as a whole, favours compounds with a hit. Of some 79,000 tested, about 15% had one in any assay.
The entries below are paired with their reported growth inhibition.
Answer in %, number only, no unit symbol.

Reference set (3 entries):
- COc1c(O)c(C=O)c(Br)c(C=O)c1O: 5
- OC(/C=C/c1ccccc1)(Cc1cc(-c2ccccc2)n[nH]1)c1ccccc1 (stereo not given): 5
- Nc1ccc2c(c1)C(=O)c1ccc(F)cc1-2: 2

What does the data say about its growth inhibition? Entry: COc1cccc(/C=N/C(/N=C/c2cccc(OC)c2O)c2cccc(OC)c2O)c1O
1

* * *

The entries below are paired with their reported growth inhibition.
test: NCI Yeast Anticancer Drug Screen. Data for the mec2-1 strain (AID 157); details: S. cerevisiae mec2-1 strain, at 1.2 µM, active compounds read high
Compounds without any hit were thinned out: in the full panel of roughly 79,000, 15% have a hit.
Answer in %, number only, no unit symbol.

* CCN(CC)CCOc1cc(C)c2cc(Cc3ccccc3)ccc2n1 | -2
* Cc1c(C(C)C)cc(OCCO)cc1C(C)C | -4
* O=C1c2ccccc2C(=O)N1CCCC(=O)n1cc(F)c(=O)[nH]c1=O | -24
* Brc1ccccc1-c1ncc(-c2ccccc2)o1 | 7
* CCCCOCn1c(=O)[nH]c(=O)c2cc(Br)ccc21 | -1
* CCCC(=O)Oc1ccc(/C=N/NC(N)=S)nc1 | -3
* CCCCc1nnc(NS(=O)(=O)c2ccc(C)cc2)s1 | -21
* O=[N+]([O-])c1cc(S(=O)(=O)Nc2ccccc2)ccc1Nc1ccccc1 | 18

What does the data say about its growth inhibition? Entry: CC(C)OC(=O)c1ccc(CCc2cc(O)c(Br)cc2O)cc1
6

What does the data say about its growth inhibition? Entry: COC(=O)NC1C(C)OC(OC2C/C=C(/C)C3C=CC4C(OC5CC(OC6CC(O)C(OC7CC(O)C(OC)C(C)O7)C(C)O6)C(O)C(C)O5)C(C)CC(C)C4C3(C)/C(O)=C3\C(=O)OC4(CC(C)C(CO)=CC4/C=C\2C)C3=O)CC1(C)[N+](=O)[O-] (stereo unspecified)
2

What does the data say about its growth inhibition? Entry: COc1cc(/C=N/Nc2nnc3c4ccccc4c4ncccc4c3n2)cc(OC)c1OC
15

What does the data say about its growth inhibition? Entry: O=c1[nH]c(-c2ccccc2)nc2c1sc1nc3ccccc3n12
-34

What does the data say about its growth inhibition? Entry: O=P(NC1CCCCC1)(OCc1ccccc1)OCc1ccccc1
1

What does the data say about its growth inhibition? Entry: O=[N+]([O-])/C=C/c1cc(Cl)c(/C=C/[N+](=O)[O-])cc1Cl
39

What does the data say about its growth inhibition? Entry: O=c1[nH]c2ccc(Cl)cc2o1
-62

What does the data say about its growth inhibition? Entry: CC(C)C(C)/C=C\C(C)C1CCC2C3=CC=C4CC(O)CCC4(C)C3CCC21C (stereo unspecified)
0

What does the data say about its growth inhibition? Entry: O=C(O)c1cc2ccc(Cl)cc2c(O)c1C1=CCCCC1
22

What does the data say about its growth inhibition? Entry: O=C(Nc1ccc(Cl)cc1)Nc1nnc2nc(C(C(=O)c3cccc([N+](=O)[O-])c3Cl)c3nc4nnc(NC(=O)Nc5ccc(Cl)cc5)n4[nH]c3=O)c(=O)[nH]n12
-4

What does the data say about its growth inhibition? Entry: CC(=O)Nc1ccc2c(c1)Cc1cc(N=C3C=CC(=O)O3)ccc1-2
19

What does the data say about its growth inhibition? Entry: N/C(=N/N=C/c1cc(Br)cc(Br)c1O)NO
-89

What does the data say about its growth inhibition? Entry: Cc1ccc(CC2(OCCN(C)C)CCC(C(C)(C)C)CC2)cc1 (stereo unspecified)
-7

What does the data say about its growth inhibition? Entry: CC1OC(O[C@H]2/C=C/C=C/C=C/C=C/C=C/C=C/C=C/[C@H](C)[C@@H](O)[C@@H](C)[C@H](C)OC(=O)C[C@H](O)C[C@H](O)CC[C@@H](O)[C@H](O)C[C@H](O)C[C@]3(O)C[C@H](O)[C@@H](C(=O)O)[C@H](C2)O3)C(O)C(N)C1O (stereo partly specified)
-2

What does the data say about its growth inhibition? Entry: CCOC(=O)CC1(C(=O)OCC)c2[nH]c3ccccc3c2CCN1Cc1ccccc1 (stereo unspecified)
-3

What does the data say about its growth inhibition? Entry: CC1=C(C(=O)NCc2ccccc2)C(c2ccccc2)C(C(=O)NCc2ccccc2)=C(C)N1
-1
